Assayed System: Na^+-NQR (Vibrio cholerae serotype O1, UniProt Q9KPS2)
Construct: being placed in its native membrane; endogenous in cells; sub-bacterial membrane vesicles made by French press
Experimental Details: Na+-NQR activity (dNADH oxidation) in sub-bacterial V. cholerae vesicles
Assay type: biochemical
pIC50: −log10 of the molar value.

{"Molecule": "CCCCCCC/C=C/C=C\\[C@H](O)CC(=O)NC1=C[C@](C)(CC)OC1=O", "pIC50": 8.75}
{"Molecule": "CCCCCCCc1cc(O)c2ccccc2[n+]1[O-] [HQNO, 2-n-heptyl-4-hydroxyquinoline N-oxide]", "pIC50": 6.89}

* * *

Test system: HeLa cell line
Experimental Details: Cell toxicity assay, HeLa cells
Type: cell-based, human
Reported Conditions: 100 μM

{"Input Smiles": "CCCCCCCCCC(=O)CC(=O)N[C@H]1CCOC1=O", "Cytotoxicity on HeLa cell line": "yes"}
{"Input Smiles": "CCCCCCCCCC(=O)N[C@H]1CCOC1=O", "Cytotoxicity on HeLa cell line": "no"}
{"Input Smiles": "CCCC(=O)N[C@H]1CCOC1=O", "Cytotoxicity on HeLa cell line": "no"}
{"Input Smiles": "CCCCCC(=O)N[C@H]1CCOC1=O", "Cytotoxicity on HeLa cell line": "no"}

* * *

Test system: Chlamydia trachomatis
Experimental Details: C. trachomatis infection of HeLa cells (chlamydial inclusions, immunocytochemistry)
Type: cell-based
Reported Conditions: read-out: MIC501, Minimal Inhibitory Concentration after the treatment; first treatment; 50% inhibition of inclusion formation
Experimental: Chlamydia trachomatis (C. trachomatis) propagation and treatment were carried out as follows. C. trachomatis was propagated in HeLa cells. The titer of C. trachomatis was determined in cyclohexamide-treated HeLa cells, and concentrations used were expressed as inclusion forming units (IFU) per mL. Assessment of the level of infection was determined as follows. […] The samples were examined by a fluorescence microscopy. Number of inclusions was calculated per 100 cells. […]
pIC50: −log10 of the molar value.
Metric Name: pIC50

{"Input Smiles": "CCCCCCC/C=C/C=C\\[C@H](O)CC(=O)NC1=C[C@](C)(CC)OC1=O", "Metric Name": "pIC50", "Recorded Measurement": 5.00}

* * *

Test system: HeLa cell line
Experimental Details: Cell toxicity assay, HeLa cells
Type: cell-based, human
Reported Conditions: 12.5 μM

{"Input Smiles": "CCCCCCCCCC(=O)CC(=O)N[C@H]1CCOC1=O", "Cytotoxicity on HeLa cell line": "yes"}
{"Input Smiles": "CCCCCC(=O)N[C@H]1CCOC1=O", "Cytotoxicity on HeLa cell line": "no"}
{"Input Smiles": "CCCC(=O)N[C@H]1CCOC1=O", "Cytotoxicity on HeLa cell line": "no"}
{"Input Smiles": "CCCCCCCCCC(=O)N[C@H]1CCOC1=O", "Cytotoxicity on HeLa cell line": "no"}

* * *

solubility values, listed per item
Experimental Details: physchem
Format: physicochemical
Reported Conditions: organic solvent or mixture

{"Input Smiles": "CCCCCCCCCCC[C@H](O)CC(=O)NC1=C[C@](C)(CC)OC1=O", "solubility": "> 50 mM"}
{"Input Smiles": "CC[C@@]1(C)C=C(NC(=O)C[C@@H](O)/C=C\\C=C\\CCCCCCN(C)C(=O)OC(C)(C)C)C(=O)O1", "solubility": "> 50 mM"}
{"Input Smiles": "CCCCCCC/C=C/C=C\\CCC(=O)NC1=C[C@](C)(CC)OC1=O", "solubility": "> 50 mM"}
{"Input Smiles": "CC[C@@]1(C)C=C(NC(=O)C[C@@H](O)/C=C\\I)C(=O)O1", "solubility": "> 50 mM"}
{"Input Smiles": "CCCCCCC/C=C/C=C\\[C@H](O)CC(=O)NC1=C[C@](C)(CC)OC1=O", "solubility": "< 25 mM"}

* * *

System: HeLa cell line
Experimental Details: Cell toxicity assay, HeLa cells
Type: cell-based, human
Reported Conditions: 25 μM

{"Input Smiles": "CCCCCCCCCC(=O)CC(=O)N[C@H]1CCOC1=O", "Cytotoxicity on HeLa cell line": "yes"}
{"Input Smiles": "CCCC(=O)N[C@H]1CCOC1=O", "Cytotoxicity on HeLa cell line": "no"}
{"Input Smiles": "CCCCCC(=O)N[C@H]1CCOC1=O", "Cytotoxicity on HeLa cell line": "no"}
{"Input Smiles": "CCCCCCCCCC(=O)N[C@H]1CCOC1=O", "Cytotoxicity on HeLa cell line": "no"}

* * *

System: HeLa cell line
Experimental Details: Cell toxicity assay, HeLa cells
Type: cell-based, human
Reported Conditions: 50 μM
Metric Name: Cytotoxicity on HeLa cell line

{"Input Smiles": "CCCCCC(=O)N[C@H]1CCOC1=O", "Recorded Measurement": "no"}
{"Input Smiles": "CCCCCCCCCC(=O)CC(=O)N[C@H]1CCOC1=O", "Recorded Measurement": "yes"}
{"Input Smiles": "CCCCCCCCCC(=O)N[C@H]1CCOC1=O", "Recorded Measurement": "no"}
{"Input Smiles": "CCCC(=O)N[C@H]1CCOC1=O", "Recorded Measurement": "no"}
